assayed.target: Avi-KRAS G12D (2-169) GTP/RAF1 RBD-3xFLAG (51-131) (Homo sapiens, UniProt P01116, G12D)
Construct: Avi-KRAS G12D (2-169)
Sequence (P01116 2-169 isoform P01116-2 G12D): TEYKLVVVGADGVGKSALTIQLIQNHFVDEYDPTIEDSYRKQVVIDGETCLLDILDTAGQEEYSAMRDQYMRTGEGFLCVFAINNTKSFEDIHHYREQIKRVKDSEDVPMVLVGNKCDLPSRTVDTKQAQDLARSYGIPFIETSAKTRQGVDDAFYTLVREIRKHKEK
assay.text: Raf1-KRAS G12D-GTP disruption HTRF assay (Biological Example 3)
Type: binding
condition.context: KRAS G12D, GTP-loaded
endpoint: IC50

1) CCN(c1nc(OC[C@@]23CCCN2C[C@H](F)C3)nc2c(F)c(-c3ccc(F)c4sc(N)c(C#N)c34)c(C(F)(F)F)cc12)[C@H]1C[C@H](COC)N(C(=O)C2C[C@@H]2F)C1 (stereo partly drawn)
100 to 1000 nM
2) CCN(c1nc(OC[C@@]23CCCN2C[C@H](F)C3)nc2c(F)c(-c3ccc(F)c4sc(N)c(C#N)c34)c(C(F)(F)F)cc12)[C@H]1C[C@H](C)N(C(=O)C2C[C@H]2F)C1 (stereo partly drawn)
100 to 1000 nM
3) N#Cc1c(N)sc2c(F)ccc(-c3c(C(F)(F)F)cc4c(N5CCNS(=O)(=O)CC5)nc(OC[C@@]56CCCN5C[C@H](F)C6)nc4c3F)c12
100 to 1000 nM

Would you kindly look at the next entry?
Form field - read-out: IC50; system: Avi-KRAS G12D (2-169) GTP/RAF1 RBD-3xFLAG (51-131) (Homo sapiens, UniProt P01116, G12D); submitted item: CC(=O)N1CC[C@H](N(c2nc(OC[C@@]34CCCN3C[C@H](F)C4)nc3c(F)c(-c4ccc(F)c5sc(N)c(C#N)c45)c(C(F)(F)F)cc23)C2CC2)C1 (atropisomer, axis not shown)
100 to 1000 nM

###

assayed.target: Avi-KRAS G12V (1-169) GppNHp/RAF1 RBD-3xFLAG (52-151) (Homo sapiens, UniProt P01116, G12V)
Construct: Avi-KRAS G12V (1-169)
Sequence (P01116 1-169 isoform P01116-2 G12V): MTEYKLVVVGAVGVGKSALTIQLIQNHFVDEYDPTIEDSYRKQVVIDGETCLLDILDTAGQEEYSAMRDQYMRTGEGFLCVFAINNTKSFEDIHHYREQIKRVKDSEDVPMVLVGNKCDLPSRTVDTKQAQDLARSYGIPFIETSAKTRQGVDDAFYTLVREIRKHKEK
assay.text: Raf1-KRAS G12V-GppNHP disruption HTRF assay (Biological Example 1)
Format: binding
condition.context: KRAS G12V, GppNHp-loaded; class symbols
pIC50: −log10 of the molar value.
endpoint: pIC50

Completed entries (count: 8):
1. CCN(c1nc(OC[C@@]23CCCN2C[C@H](F)C3)nc2c(F)c(-c3ccc(F)c4sc(N)c(C#N)c34)c(C(F)(F)F)cc12)[C@H]1C[C@@H]2CN(C)C(=O)N2C1 (atropisomer, axis not shown)
6.00 to 7.00
2. CCN(c1nc(OCC23CCCN2CC(F)C3)nc2c(F)c(-c3ccc(F)c4sc(N)c(C#N)c34)c(C(F)(F)F)cc12)C1CCN(C(=O)c2ncon2)C1 (stereo not drawn)
6.00 to 7.00
3. C[C@@H](c1cccnc1N)N(C)c1nc(OC[C@@]23CCCN2C[C@H](F)C3)nc2c(F)c(-c3ccc(F)c4sc(N)c(C#N)c34)c(C(F)(F)F)cc12 (atropisomer, axis not shown)
6.00 to 7.00
4. CCN(c1nc(OC[C@@]23CCCN2C[C@H](F)C3)nc2c(F)c(-c3ccc(F)c4sc(N)c(C#N)c34)c(C(F)(F)F)cc12)[C@H]1CCN(C(=O)O[C@H]2CCOC2)[C@@H]1C (atropisomer, axis not shown)
> 7.00
5. CCN(c1nc(OC[C@@]23CCCN2C[C@H](F)C3)nc2c(F)c(-c3ccc(F)c4sc(N)c(C#N)c34)c(C(F)(F)F)cc12)[C@@H]1C[C@H](C)N(C(=O)C2COC2)C1 (atropisomer, axis not shown)
6.00 to 7.00
6. CN(C)C(=O)c1nn2c(c1C(F)(F)F)CN(c1nc(OC[C@@]34CCCN3C[C@H](F)C4)nc3c(F)c(-c4ccc(F)c5sc(N)c(C#N)c45)c(C(F)(F)F)cc13)CC2 (atropisomer, axis not shown)
6.00 to 7.00
7. CCN(c1nc(OC[C@@]23CCCN2C[C@H](F)C3)nc2c(F)c(-c3ccc(F)c4sc(N)c(C#N)c34)c(C(F)(F)F)cc12)[C@H]1CCN(C(=O)[C@H]2CCCCO2)C1 (atropisomer, axis not shown)
> 7.00
8. N#Cc1c(N)sc2c(F)ccc(-c3c(C(F)(F)F)cc4c(N5C[C@H]6[C@@H]5CCN6C(=O)C5CC5)nc(OC[C@@]56CCCN5C[C@H](F)C6)nc4c3F)c12 (atropisomer, axis not shown)
5.00 to 6.00

Would you kindly look at the next entry?
I'd like to know its pIC50. The compound in question is `N#Cc1c(N)sc2c(F)ccc(-c3c(C(F)(F)F)cc4c(N(C5CC5)[C@H]5CCS(=O)(=O)C5)nc(OC[C@@]56CCCN5C[C@H](F)C6)nc4c3F)c12`
5.00 to 6.00

###

assayed.target: Avi-KRAS G12D (1-169) GppNHp/RAF1 RBD-3xFLAG (52-151) (Homo sapiens, UniProt P01116, G12D)
Construct: Avi-KRAS G12D (1-169)
Sequence (P01116 1-169 isoform P01116-2 G12D): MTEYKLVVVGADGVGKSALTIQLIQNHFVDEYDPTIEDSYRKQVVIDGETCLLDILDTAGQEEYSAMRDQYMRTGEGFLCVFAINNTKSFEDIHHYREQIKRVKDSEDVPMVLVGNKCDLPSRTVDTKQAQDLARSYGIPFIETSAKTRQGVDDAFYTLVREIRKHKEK
assay.text: Raf1-KRAS G12D-GppNHP disruption HTRF assay (Biological Example 1)
Assay type: binding
condition.context: KRAS G12D-GppNHp/RAF1 RBD HTRF
endpoint: IC50

1) Cc1nc(OC[C@@]23CCCN2C[C@H](F)C3)nc2c(F)c(-c3ccc(F)c4sc(N)c(C#N)c34)c(C(F)(F)F)cc12 [Compound 318]
100 to 1000 nM
2) CCN(c1nc(OC[C@@]23CCCN2C[C@H](F)C3)nc2c(F)c(-c3ccc(F)c4sc(N)c(C#N)c34)c(C(F)(F)F)cc12)[C@H]1CCS(=O)(=O)C1 (atropisomer, axis not shown) [Compound 491]
1000 to 10000 nM
3) N#Cc1c(N)sc2c(F)ccc(-c3c(C(F)(F)F)cc4c(N5CCn6nc(C(=O)N7CC(O)C7)cc6C5)nc(OC[C@@]56CCCN5C[C@H](F)C6)nc4c3F)c12 [Compound 502]
100 to 1000 nM

I'd like to know its IC50. The compound in question is CC(C)C(=O)N1CC[C@](C)(N(C)c2nc(OC[C@@]34CCCN3C[C@H](F)C4)nc3c(F)c(-c4ccc(F)c5sc(N)c(C#N)c45)c(C(F)(F)F)cc23)C1 [Compound 499]
100 to 1000 nM

Same lookup for CN(C)C(=O)c1cnn2c1CN(c1nc(OC[C@@]34CCCN3C[C@H](F)C4)nc3c(F)c(-c4ccc(F)c5sc(N)c(C#N)c45)c(C(F)(F)F)cc13)CC2 [Compound 353] , please.
100 to 1000 nM

Same lookup for CC(=O)N1C[C@@H]2OCCN(c3nc(OC[C@@]45CCCN4C[C@H](F)C5)nc4c(F)c(-c5ccc(F)c6sc(N)c(C#N)c56)c(C(F)(F)F)cc34)[C@@H]2C1 [Compound 481] , please.
100 to 1000 nM

Same lookup for N#Cc1c(N)sc2c(F)ccc(-c3c(C(F)(F)F)cc4c(N5CCn6nc(C(=O)N7CCC(O)C7)cc6C5)nc(OCC56CCCN5CC(F)C6)nc4c3F)c12 (stereo not drawn) [Compound 513] , please.
100 to 1000 nM

Same lookup for C[C@@H]1[C@H](N(C)c2nc(OC[C@@]34CCCN3C[C@H](F)C4)nc3c(F)c(-c4ccc(F)c5sc(N)c(C#N)c45)c(C(F)(F)F)cc23)CCN1C(=O)C(C)(C)F [Compound 424] , please.
100 to 1000 nM

Same lookup for N#Cc1c(N)sc2c(F)ccc(-c3c(C(F)(F)F)cc4c(N5CC6CC(O)C(C6)C5)nc(OC[C@@]56CCCN5C[C@H](F)C6)nc4c3F)c12 (stereo partly drawn) [Compound 306] , please.
1000 to 10000 nM

###

assayed.target: Avi-KRAS WT (2-169) GTP/RAF1 RBD-3xFLAG (51-131) (Homo sapiens)
Construct: Avi-KRAS WT (2-169)
Sequence (P01116 2-169 isoform P01116-2): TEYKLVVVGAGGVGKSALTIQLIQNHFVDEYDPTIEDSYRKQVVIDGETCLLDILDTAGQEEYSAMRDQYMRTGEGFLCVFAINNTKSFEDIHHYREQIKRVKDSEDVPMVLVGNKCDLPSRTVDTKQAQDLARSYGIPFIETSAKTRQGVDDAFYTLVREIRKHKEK
assay.text: Raf1-KRAS WT-GTP disruption HTRF assay (Biological Example 3)
Type: binding
condition.context: KRAS WT-GTP / RAF1 RBD HTRF
pIC50: −log10 of the molar value.
// values below are reported pIC50

I'd like to know its pIC50. The compound in question is `CCN(c1nc(OC[C@@]23CCCN2C[C@H](F)C3)nc2c(F)c(-c3ccc(F)c4sc(N)c(C#N)c34)c(C(F)(F)F)cc12)[C@H]1CCN(c2nccs2)C1`
5.00 to 6.00

Same lookup for CN(c1nc(OC[C@@]23CCCN2C[C@H](F)C3)nc2c(F)c(-c3ccc(F)c4sc(N)c(C#N)c34)c(C(F)(F)F)cc12)[C@@H]1CCCc2ccncc21 (atropisomer, axis not shown) , please.
6.00 to 7.00

###

assayed.target: Avi-KRAS G12C (2-169) GTP/RAF1 RBD-3xFLAG (51-131) (Homo sapiens, UniProt P01116, G12C)
Construct: Avi-KRAS G12C (2-169)
Sequence (P01116 2-169 isoform P01116-2 G12C): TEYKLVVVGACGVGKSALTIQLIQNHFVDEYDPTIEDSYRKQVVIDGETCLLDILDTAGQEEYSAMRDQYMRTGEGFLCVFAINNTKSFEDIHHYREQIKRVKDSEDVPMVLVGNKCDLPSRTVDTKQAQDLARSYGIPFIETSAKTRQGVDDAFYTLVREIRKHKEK
assay.text: Raf1-KRAS G12C-GTP disruption HTRF assay (Biological Example 3)
Assay type: binding
condition.context: KRAS G12C, GTP-loaded
pIC50: −log10 of the molar value.
endpoint: pIC50

1) C/C=C/C(=O)N1CC[C@H](N(CC)c2nc(OC[C@@]34CCCN3C[C@H](F)C4)nc3c(F)c(-c4ccc(F)c5sc(N)c(C#N)c45)c(C(F)(F)F)cc23)C1 (atropisomer, axis not shown)
≥ 7.00

Would you kindly look at the next entry?
I'd like to know its pIC50. The molecule in question is CCN(c1nc(OC[C@@]23CCCN2C[C@H](F)C3)nc2c(F)c(-c3ccc(F)c4sc(N)c(C#N)c34)c(C(F)(F)F)cc12)[C@@H]1C[C@@H](C)N(C(C)=O)C1 (atropisomer, axis not shown)
6.00 to 7.00
